# SYSTEM_TESTED: Escherichia coli biotin synthase (BS) (Escherichia coli, UniProt P12996)
# Sequence (P12996 whole entry): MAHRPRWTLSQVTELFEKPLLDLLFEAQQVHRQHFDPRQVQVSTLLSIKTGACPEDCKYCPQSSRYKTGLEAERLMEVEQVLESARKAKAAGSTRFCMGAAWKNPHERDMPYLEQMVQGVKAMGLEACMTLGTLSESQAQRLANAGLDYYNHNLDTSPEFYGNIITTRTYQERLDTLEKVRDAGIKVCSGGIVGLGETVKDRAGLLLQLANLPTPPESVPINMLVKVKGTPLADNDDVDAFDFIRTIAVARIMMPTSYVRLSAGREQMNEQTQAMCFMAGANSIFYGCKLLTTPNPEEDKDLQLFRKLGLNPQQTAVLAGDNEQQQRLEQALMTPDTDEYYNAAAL
# Type: biochemical
# RECORDED_CONDITIONS: Ki, inhibitor alone, competitive with AdoMet; BS 25 μM, 30 min, 37 °C
Give Ki for every item shown.

> print(dat)
                                   molecule  recorded.value
1  C[C@H]1O[C@@H](n2cnc3c(N)ncnc32)[C@H](O)[C@@H]1O [dAH, 5′-deoxyadenosine]           20 µM

Switching to the query record.
// query Provide Ki value for the following molecule: CSCC[C@H](N)C(=O)O [methionine]
// result 100 µM

* * *

# SYSTEM_TESTED: Escherichia coli biotin synthase (BS) (Escherichia coli)
# EXPERIMENT_SUMMARY: Screen for BS inhibition by products and product-related compounds
# Format: biochemical
# RECORDED_CONDITIONS: inhibitor 500 μM alone; AdoMet 100 μM, BS 25 μM, 30 min, 37 °C
MEASURE: inhibition of BS in the screen

> print(dat)
                                   molecule                         measure  recorded.value
1           CSCC[C@H](N)C(=O)O [methionine]  inhibition of BS in the screen      inhibitors
2  C[C@H]1O[C@@H](n2cnc3c(N)ncnc32)[C@H](O)[C@@H]1O [dAH, 5′-deoxyadenosine]  inhibition of BS in the screen      inhibitors

* * *

# SYSTEM_TESTED: Escherichia coli biotin synthase (BS) (Escherichia coli, UniProt P12996)
# EXPERIMENT_SUMMARY: Equilibrium UV/visible titration of AdoHcy binding to reconstituted BS
MEASURE: Kd (nM)
Answers are plain numbers, in nM.

// query Provide Kd value for the following compound: Nc1ncnc2c1ncn2[C@@H]1O[C@H](CSCC[C@H](N)C(=O)O)[C@@H](O)[C@H]1O
// result 540

Recorded values, source paper PMC6541390.
